Test summary: NCI Yeast Anticancer Drug Screen. Data for the cln2 rad14 strain (AID 165)
Condition summary: S. cerevisiae cln2 rad14 strain, at 50.0 µM, active compounds read high
Procedure: Growth inhibition of yeast strains with defined genetic alterations is measured as a screen for potential anti-cancer activity. Selected strains with alterations in DNA damage repair or cell cycle control were exposed to compounds and growth inhibition was measured relative to vehicle treated controls. The strain used in this assay is cln2 rad14
About 79,000 compounds went through this panel and 15% of them were active in at least one assay; those are over-represented in the sample as a whole.
The class of a record is decided solely by its measured growth inhibition; consult low = under 80%, middle = from 80% up to 90%, high = 90% and over

Sample answers from the record:
# Compound, Discrete label
rows = [
    ("Nc1nc(Cc2ccccc2)nc(Cc2ccccc2)c1-c1ccccc1", "high"),
    ("CCCN(CCC)c1ccc(Cc2ccc(N(CCC)CCC)cc2N)c(N)c1", "high"),
    ("COc1cc(NCC(C#N)C#N)ccc1N=Nc1ccc(Cl)cc1", "low"),
    ("CC1CCN(C(=S)NNC(C)c2cc3ccccc3cn2)CC1 (stereo unspecified)", "middle"),
]

Sort O=P1(NCC2CCCO2)OCC2(CO1)COP(=O)(NCC1CCCO1)OC2 (stereo unspecified) into one of the categories.
high

Sort CCCCCC(CCCCC)OC(=O)CCN(CCCCC)CCCCC into one of the categories.
low

Sort CC1=C(Br)S(=O)(=O)N(c2ccccc2)C(CBr)=C1Br into one of the categories.
low

Sort O=[N+]([O-])c1ccc(O)c(C2CCCCC2)c1 into one of the categories.
high

Sort CCC[CH2][Sn]([CH2]CCC)([NH]c1ncnc2[nH]cnc12)[NH]c1ncnc2[nH]cnc12 into one of the categories.
middle

Sort Oc1ccc2ccccc2c1.[Cu+2] into one of the categories.
middle

* * *

Test summary: NCI Yeast Anticancer Drug Screen. Data for the sgs1 mgt1 strain (AID 161)
Condition summary: S. cerevisiae sgs1 mgt1 strain, at 50.0 µM (retest, dose inferred, filed as 5.0)
About 79,000 compounds went through this panel and 15% of them were active in at least one assay; those are over-represented in the sample as a whole. The source made the active and inactive calls. No stated cut-off is given here; in the data, active means growth inhibition above about 70%; inactive means the rest.
Respond only with the outcome that fits, drawn from T (active), F (inactive)

Sample answers from the record:
# Compound, Discrete label
rows = [
    ("CCC(c1ccc(O)cc1)C(CC)c1ccc(OCC(N)=O)cc1 (stereo not drawn)", "F"),
    ("COc1ccc(/C(=N/NC(N)=O)C(c2ccc(OC)cc2)C2C(=O)Oc3ccccc32)cc1 (stereo not drawn)", "T"),
    ("CC(=O)C1CCCCC1/C=C/[N+](=O)[O-] (stereo not drawn)", "T"),
    ("S=c1c2ccccc2[nH]c2ccccc12", "T"),
    ("CC(=O)N(C1=CC(=O)c2ccccc2C1=O)c1ccc(C)cc1", "T"),
]

Kindly provide the recorded test outcome for the following compound: CC(=O)Oc1ccc2ccccc2c1CN(Cc1c(OC(C)=O)ccc2ccccc12)C(C)=O
T

* * *

Test summary: NCI Yeast Anticancer Drug Screen. Data for the mec2-1 strain (AID 157)
Condition summary: S. cerevisiae mec2-1 strain, at 5.0 µM (retest, dose inferred, filed as 0.5)
The panel holds about 79,000 compounds, 15% with a hit somewhere; the sample as a whole holds those more often. The source made the active and inactive calls. No stated cut-off is given here; in the data, active means growth inhibition above about 70%; inactive means the rest.
Respond only with the outcome that fits, drawn from active, inactive

Sample answers from the record:
# Molecule, Discrete label
measured = [
    ("O=C1C=CC(=O)c2c(O)c(N3CCC[C@@H]3CO)c(Cl)c(O)c21", "inactive"),
    ("COC(=O)C(Sc1ccc(Cl)cc1)C1SC(=S)N(C)C1=O (stereo unspecified)", "inactive"),
    ("O=c1cccccc1[O-].O=c1cccccc1[O-].O=c1cccccc1[O-].[Dy+3]", "inactive"),
    ("CCc1ccc(C)nc1", "inactive"),
    ("NCCSC1(O)C(=O)c2ccccc2C1=O", "inactive"),
    ("O=C(CSc1nnc(Cc2ccccc2)o1)Nc1ccc(Cl)cc1", "inactive"),
    ("CCCC/C(=N/Nc1ccc([N+](=O)[O-])cc1)C(=O)O", "inactive"),
    ("Nc1ccc(S(=O)(=O)NCc2nccs2)cc1", "inactive"),
    ("C[n+]1cccc2c1-c1ccccc1C2=O", "inactive"),
    ("CCOc1ccccc1/C=C1\\NC(=O)N(/C=C2\\C(=O)Oc3ccccc3C2=O)C1=O", "inactive"),
]

Kindly provide the recorded test outcome for the following molecule: C/C(=N\NC(=S)N1CCN(c2ccccc2)CC1)c1nccs1
inactive

Kindly provide the recorded test outcome for the following molecule: Nc1ccc2c(c1)[nH]c(=O)c1c(Cl)cccc12
inactive

Kindly provide the recorded test outcome for the following molecule: Clc1ccc(N2CCN(CCCN3CCN(c4ccc(Cl)cc4)CC3)CC2)cc1
inactive

Kindly provide the recorded test outcome for the following molecule: c1ccc(CC(Nc2cccnc2)c2ccccc2)cc1 (stereo unspecified)
inactive

Kindly provide the recorded test outcome for the following molecule: CCCCCCCCCCCCCCCCOC(=O)C[n+]1cccc(C(N)=O)c1
inactive
